Provenance of the data: ChEMBL document CHEMBL1128667

Answer each item with its documented Ratio.
system: Sigma 2 receptor; assay: Ratio of binding affinity towards guinea-pig brain […] receptor to rat liver sigma-2 receptor
Numbers only.

# example entries with known answers
COMPOUND | TARGET_OR_SYSTEM | MEASURED_PARAMETER | DATA_VALUE
CN1CCC2(c3cccc(O)c3)CC(=O)/C(=C/c3cccc(Cl)c3)C1C2 (stereo in doubt; (+)-7) | Sigma 2 receptor | Ratio | 138
COc1cccc(/C=C2/C(=O)CC3(c4cccc(O)c4)CCN(C)C2C3)c1 (single isomer, unassigned; (+)) | Sigma 2 receptor | Ratio | 157
CN1CCC2(c3cccc(O)c3)CC(=O)/C(=C/c3ccccc3)C1C2 (single isomer, unassigned; (+)) | Sigma 2 receptor | Ratio | 79

Batch request: Ratio for each of the following compounds.
1. CN1CCC2(c3cccc(O)c3)CC(=O)/C(=C/c3ccc(Cl)cc3)C1C2 (single isomer, unassigned; (-))
2. CN1CCC2(c3cccc(O)c3)CC(=O)/C(=C/c3cccc(I)c3)C1C2 (stereo not drawn)
3. CN1CCC2(c3cccc(O)c3)CC(=O)/C(=C/C3CC3)C1C2 (stereo not drawn)
4. COc1ccc(/C=C2/C(=O)CC3(c4cccc(O)c4)CCN(C)C2C3)cc1 (single isomer, unassigned; (-))

1. 0.69
2. 68
3. 0.18
4. 0.1

Entry COc1ccc(/C=C2/C(=O)CC3(c4cccc(O)c4)CCN(C)C2C3)cc1 (single isomer, unassigned; (+)) : reported Ratio = ?
88

###

Would you kindly list pKi for each of these molecules?
molecular target: Delta-type opioid receptor (Rattus norvegicus, UniProt P33533); test: Ability to inhibit [3H]DADLE binding to rat brain delta receptor
Sequence (P33533 whole entry): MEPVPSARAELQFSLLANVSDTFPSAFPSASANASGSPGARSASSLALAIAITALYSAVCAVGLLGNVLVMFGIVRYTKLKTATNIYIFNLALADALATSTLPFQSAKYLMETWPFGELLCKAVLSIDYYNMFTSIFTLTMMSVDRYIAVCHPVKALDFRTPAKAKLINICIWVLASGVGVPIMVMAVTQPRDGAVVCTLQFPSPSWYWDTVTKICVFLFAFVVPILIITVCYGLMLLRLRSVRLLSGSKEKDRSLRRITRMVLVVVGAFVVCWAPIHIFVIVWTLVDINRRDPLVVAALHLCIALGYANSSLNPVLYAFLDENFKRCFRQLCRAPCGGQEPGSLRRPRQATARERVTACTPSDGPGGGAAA
Answers are plain numbers, as −log10 of the molar value.

MOLECULE | pKi
CN1CCC2(c3cccc(O)c3)CC(=O)/C(=C/c3ccc(Cl)c(Cl)c3)C1C2 (single isomer, unassigned; (+)) | 6.57
CN1CCC2(c3cccc(O)c3)CC(=O)/C(=C/c3ccc(I)cc3)C1C2 (single isomer, unassigned; (+)) | 6.49
CN1CCC2(c3cccc(O)c3)CC(=O)/C(=C/c3cccc(Cl)c3)C1C2 (stereo in doubt; 7) | 6.65
COc1ccc(/C=C2/C(=O)CC3(c4cccc(O)c4)CCN(C)C2C3)cc1 (stereo in doubt; 4) | 8.15

# next molecule below
Sample CN1CCC2(c3cccc(O)c3)CC(=O)/C(=C/c3ccc(Cl)cc3)C1C2 (stereo in doubt; (+)-5) — what was its pKi?
6.47

###

target: Mu-type opioid receptor (Rattus norvegicus)
Sequence (P33535 whole entry): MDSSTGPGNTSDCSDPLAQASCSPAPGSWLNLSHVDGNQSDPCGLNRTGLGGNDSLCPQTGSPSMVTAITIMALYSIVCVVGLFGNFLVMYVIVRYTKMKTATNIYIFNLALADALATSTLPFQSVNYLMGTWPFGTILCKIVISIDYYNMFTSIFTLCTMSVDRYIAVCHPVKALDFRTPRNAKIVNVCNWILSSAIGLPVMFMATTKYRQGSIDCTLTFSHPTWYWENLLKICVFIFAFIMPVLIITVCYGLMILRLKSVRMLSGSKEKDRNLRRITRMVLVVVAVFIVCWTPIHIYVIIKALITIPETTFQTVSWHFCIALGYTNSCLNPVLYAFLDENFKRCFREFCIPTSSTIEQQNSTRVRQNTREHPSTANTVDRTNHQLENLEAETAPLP
For each entry below, report its Ki value.
Numbers only, in nM.

# count of solved cases: 3
COMPOUND | TARGET_OR_SYSTEM | QUANTITY_UNIT | Ki
CN1CCC2(c3cccc(O)c3)CC(=O)/C(=C/c3ccc(I)cc3)C1C2 (single isomer, unassigned; (+)) | Mu-type opioid receptor (Rattus norvegicus) | nM | 26.7
COc1cccc(/C=C2/C(=O)CC3(c4cccc(O)c4)CCN(C)C2C3)c1 (stereo in doubt; 6) | Mu-type opioid receptor (Rattus norvegicus) | nM | 11.8
CN1CCC2(c3cccc(O)c3)CC(=O)/C(=C/c3cccc(Cl)c3)C1C2 (stereo in doubt; (+)-7) | Mu-type opioid receptor (Rattus norvegicus) | nM | 11.8

I need Ki for every entry listed below, if you could help.
1. CN1CCC2(c3cccc(O)c3)CC(=O)/C(=C/C3CC3)C1C2 (stereo unspecified)
2. COc1cccc(/C=C2/C(=O)CC3(c4cccc(O)c4)CCN(C)C2C3)c1 (single isomer, unassigned; (+))
3. CN1CCC2(c3cccc(O)c3)CC(=O)/C(=C/c3ccccc3)C1C2 (single isomer, unassigned; (+))

[11.2, 12.6, 37.6]
